- Assayed system: UniProt Q06124
- Sequence (Q06124 224-528): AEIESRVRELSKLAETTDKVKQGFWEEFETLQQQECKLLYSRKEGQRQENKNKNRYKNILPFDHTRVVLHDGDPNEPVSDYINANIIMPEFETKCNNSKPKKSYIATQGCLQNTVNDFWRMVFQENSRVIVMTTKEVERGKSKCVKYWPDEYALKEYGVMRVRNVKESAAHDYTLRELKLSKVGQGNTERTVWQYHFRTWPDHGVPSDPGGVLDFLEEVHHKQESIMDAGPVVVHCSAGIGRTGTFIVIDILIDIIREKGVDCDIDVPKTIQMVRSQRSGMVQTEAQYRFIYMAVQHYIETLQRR
- Test summary: SHP2 phosphatase inhibition assay (pNPP)
- Format: biochemical
- Condition notes: Example 9: SHP2 catalytic domain 20 nM, pNPP 3 mM, pH 7.0, 25° C.; read-out: IC50 SHP2

- Compound: "O=C(Nc1ccccc1)C(=O)Nc1ccc(NC(=O)C(c2ccccc2)S(=O)(=O)O)cc1 (stereo not shown)"
  Assayed system: "UniProt Q06124"
  Inequality operator: ">"
  IC50 (nM): 50000
- Compound: "O=C(O)C(=O)Nc1cccc(NC(=O)C(c2ccccc2)S(=O)(=O)O)c1 (stereo not shown)"
  Assayed system: "UniProt Q06124"
  Inequality operator: ">"
  IC50 (nM): 50000
- Compound: "O=C(O)C(=O)NCc1ccc(NC(=O)C(c2ccccc2)S(=O)(=O)O)cc1 (stereo not shown)"
  Assayed system: "UniProt Q06124"
  Inequality operator: ">"
  IC50 (nM): 50000
- Compound: "O=C(Nc1ccc(NC(=O)C(c2ccccc2)S(=O)(=O)O)cc1)C(=O)Nc1ccc(-c2ccccc2)cc1 (stereo not shown)"
  Assayed system: "UniProt Q06124"
  Inequality operator: "="
  IC50 (nM): 1360
- Compound: "O=C(Nc1ccc(NC(=O)C(c2ccccc2)S(=O)(=O)O)cc1)C(=O)Nc1ccc(-c2cccs2)cc1 (stereo not shown)"
  Assayed system: "UniProt Q06124"
  Inequality operator: "="
  IC50 (nM): 900
- Compound: "O=C(Nc1ccc(NC(=O)C(c2ccccc2)S(=O)(=O)O)cc1)C(=O)Nc1cc(-c2ccc(Br)cc2)n[nH]1 (stereo not shown)"
  Assayed system: "UniProt Q06124"
  Inequality operator: "="
  IC50 (nM): 730
- Compound: "CC(C)c1ccc(NC(=O)C(=O)Nc2ccc(NC(=O)C(c3ccccc3)S(=O)(=O)O)cc2)cc1 (stereo not shown)"
  Assayed system: "UniProt Q06124"
  Inequality operator: "="
  IC50 (nM): 2330
- Compound: "O=C(Nc1ccc(I)cc1)C(=O)Nc1ccc(NC(=O)C(c2ccccc2)S(=O)(=O)O)cc1 (stereo not shown)"
  Assayed system: "UniProt Q06124"
  Inequality operator: "="
  IC50 (nM): 1510
- Compound: "O=C(O)C(=O)Nc1ccc(NC(=O)C(c2ccccc2)S(=O)(=O)O)cc1 (stereo not shown)"
  Assayed system: "UniProt Q06124"
  Inequality operator: ">"
  IC50 (nM): 50000
- Compound: "O=C(O)C(=O)Nc1ccc(CNC(=O)C(c2ccccc2)S(=O)(=O)O)cc1 (stereo not shown)"
  Assayed system: "UniProt Q06124"
  Inequality operator: ">"
  IC50 (nM): 50000

###

- Assayed system: PTPH1 (Homo sapiens, UniProt P26045)
- Sequence (P26045 1-913): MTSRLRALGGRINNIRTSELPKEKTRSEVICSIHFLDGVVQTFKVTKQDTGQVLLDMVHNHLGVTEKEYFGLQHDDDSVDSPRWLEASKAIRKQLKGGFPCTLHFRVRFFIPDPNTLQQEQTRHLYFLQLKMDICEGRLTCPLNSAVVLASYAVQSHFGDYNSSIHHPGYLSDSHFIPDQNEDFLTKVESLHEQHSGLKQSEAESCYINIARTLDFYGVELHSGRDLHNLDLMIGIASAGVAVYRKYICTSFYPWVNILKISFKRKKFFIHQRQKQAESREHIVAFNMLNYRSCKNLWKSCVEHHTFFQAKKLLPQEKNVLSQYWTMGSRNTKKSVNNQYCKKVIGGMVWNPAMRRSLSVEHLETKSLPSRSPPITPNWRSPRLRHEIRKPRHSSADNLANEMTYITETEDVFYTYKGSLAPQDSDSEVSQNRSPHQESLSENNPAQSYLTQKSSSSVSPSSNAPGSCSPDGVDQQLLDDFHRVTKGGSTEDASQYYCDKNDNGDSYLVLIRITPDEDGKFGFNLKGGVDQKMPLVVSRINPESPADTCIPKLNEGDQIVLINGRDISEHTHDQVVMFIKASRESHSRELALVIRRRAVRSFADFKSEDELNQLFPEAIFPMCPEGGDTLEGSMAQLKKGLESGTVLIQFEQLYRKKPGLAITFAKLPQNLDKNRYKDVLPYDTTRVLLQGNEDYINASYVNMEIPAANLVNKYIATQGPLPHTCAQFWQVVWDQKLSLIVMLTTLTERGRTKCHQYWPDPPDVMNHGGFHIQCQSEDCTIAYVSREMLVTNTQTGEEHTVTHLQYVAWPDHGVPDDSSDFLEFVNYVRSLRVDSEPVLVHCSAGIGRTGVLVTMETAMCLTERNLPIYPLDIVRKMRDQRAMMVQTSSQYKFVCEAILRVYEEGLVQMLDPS
pIC50: −log10 of the molar value.

- Compound: "O=C(CS(=O)(=O)O)Nc1cnc2ccccc2c1"
  Assayed system: "PTPH1 (Homo sapiens, UniProt P26045)"
  pIC50: "< 4.00"
- Compound: "O=C(CS(=O)(=O)O)Nc1ccc2nc(C(F)(F)F)[nH]c2c1"
  Assayed system: "PTPH1 (Homo sapiens, UniProt P26045)"
  pIC50: "< 4.00"
- Compound: "O=C(Nc1cccc(OCc2ccccc2)c1)C(c1ccccc1)S(=O)(=O)O (centres unmarked)"
  Assayed system: "PTPH1 (Homo sapiens, UniProt P26045)"
  pIC50: "< 3.70"
- Compound: "O=C(CS(=O)(=O)O)Nc1nc2ccccc2s1"
  Assayed system: "PTPH1 (Homo sapiens, UniProt P26045)"
  pIC50: "< 4.00"
- Compound: "O=C(C(c1ccccc1)S(=O)(=O)O)N1CCC(Cc2ccccc2)CC1 (centres unmarked)"
  Assayed system: "PTPH1 (Homo sapiens, UniProt P26045)"
  pIC50: "< 3.70"
- Compound: "O=C(CS(=O)(=O)O)Nc1nc2ccc([N+](=O)[O-])cc2s1"
  Assayed system: "PTPH1 (Homo sapiens, UniProt P26045)"
  pIC50: "< 4.00"
- Compound: "O=C(C(c1ccccc1)S(=O)(=O)O)N1CCC(c2ccc(Cl)c(Cl)c2)CC1 (centres unmarked)"
  Assayed system: "PTPH1 (Homo sapiens, UniProt P26045)"
  pIC50: 4.52
- Compound: "O=C(C(c1ccccc1)S(=O)(=O)O)N1CCCC2CCCCC21 (centres unmarked)"
  Assayed system: "PTPH1 (Homo sapiens, UniProt P26045)"
  pIC50: "< 3.70"

###

Let's go through some recorded IC50 values for PTPα (Homo sapiens, UniProt P18433) together.

- Compound: "O=C(CS(=O)(=O)O)Nc1ccc2nc(C(F)(F)F)[nH]c2c1"
  IC50: "> 100 µM"
- Compound: "O=C(C(c1ccccc1)S(=O)(=O)O)N1CCCC2CCCCC21 (centres unmarked)"
  IC50: "> 200 µM"
- Compound: "O=C(C(c1ccccc1)S(=O)(=O)O)N1CCC(c2ccc(Cl)c(Cl)c2)CC1 (centres unmarked)"
  IC50: "> 200 µM"
- Compound: "Cc1c(Br)cc(NC(=O)CS(=O)(=O)O)cc1Br"
  IC50: "> 100 µM"
- Compound: "O=C(Nc1nc2ccccc2s1)C(c1ccccc1)S(=O)(=O)O (centres unmarked)"
  IC50: "> 200 µM"
- Compound: "O=C(Nc1ccc(N2CCOCC2)cc1)C(c1ccccc1)S(=O)(=O)O (centres unmarked)"
  IC50: "> 200 µM"
- Compound: "O=C(Nc1cccc(OCc2ccccc2)c1)C(c1ccccc1)S(=O)(=O)O (centres unmarked)"
  IC50: "> 200 µM"
- Compound: "O=C(Nc1cnc2ccccc2c1)C(c1ccccc1)S(=O)(=O)O (centres unmarked)"
  IC50: "> 200 µM"

###

pIC50: −log10 of the molar value.
Let's go through some recorded pIC50 values for CDC14A (Homo sapiens, UniProt Q9UNH5) together.
Measurement kind: pIC50

- Molecule: "O=C(CS(=O)(=O)O)Nc1nc2ccccc2s1"
  Measured value: "< 4.00"
- Molecule: "O=C(C(c1ccccc1)S(=O)(=O)O)N1CCCC2CCCCC21 (stereo not shown)"
  Measured value: "< 3.70"
- Molecule: "Cc1c(Br)cc(NC(=O)CS(=O)(=O)O)cc1Br"
  Measured value: "< 4.00"
- Molecule: "O=C(Nc1cnc2ccccc2c1)C(c1ccccc1)S(=O)(=O)O (stereo not shown)"
  Measured value: "< 3.70"
- Molecule: "O=C(Nc1ccc2nc(C(F)(F)F)[nH]c2c1)C(c1ccccc1)S(=O)(=O)O (stereo not shown)"
  Measured value: "< 3.70"
- Molecule: "O=C(CS(=O)(=O)O)Nc1cnc2ccccc2c1"
  Measured value: "< 4.00"
- Molecule: "O=C(Nc1nc2ccccc2s1)C(c1ccccc1)S(=O)(=O)O (stereo not shown)"
  Measured value: "< 3.70"
- Molecule: "O=C(CS(=O)(=O)O)Nc1nc2ccc([N+](=O)[O-])cc2s1"
  Measured value: "< 4.00"
- Molecule: "O=C(C(c1ccccc1)S(=O)(=O)O)N1CCC(c2ccc(Cl)c(Cl)c2)CC1 (stereo not shown)"
  Measured value: "< 3.70"
- Molecule: "O=C(Nc1cccc(OCc2ccccc2)c1)C(c1ccccc1)S(=O)(=O)O (stereo not shown)"
  Measured value: "< 3.70"
- Molecule: "O=C(C(c1ccccc1)S(=O)(=O)O)N1CCC(Cc2ccccc2)CC1 (stereo not shown)"
  Measured value: "< 3.70"
- Molecule: "O=C(CS(=O)(=O)O)Nc1ccc2nc(C(F)(F)F)[nH]c2c1"
  Measured value: "< 4.00"
- Molecule: "O=C(Nc1ccc(N2CCOCC2)cc1)C(c1ccccc1)S(=O)(=O)O (stereo not shown)"
  Measured value: "< 3.70"
